Quick reference for growth inhibition among some compounds
# METHOD_NOTES: NCI Yeast Anticancer Drug Screen. Data for the bub3 strain (AID 167)
# EXPERIMENTAL_SETUP: S. cerevisiae bub3 mutant strain, at 50.0 µM, active compounds read high
Compounds without any hit were thinned out: in the full panel of roughly 79,000, 15% have a hit.
The reply should contain only the number, in %.

A selection of reference data follows.
- COMPOUND: "CC(C)[C@@H]1NC(=O)[C@@H]2N=C(O[C@H]2C)[C@H](C(C)C)NC(=O)C2N=C1O[C@H]2C"
  growth inhibition, %: 10.3
- COMPOUND: "COc1cccc(/C(CC(O)(C(F)(F)F)C(F)(F)F)=N\\N(C)C)c1"
  growth inhibition, %: 1.5
- COMPOUND: "COc1ccc(C2CC(=O)N(c3nccc(C)n3)C(=O)C2)cc1"
  growth inhibition, %: -16.5
- COMPOUND: "CC([O-])=C1C(=O)c2ccccc2C1=O.CC([O-])=C1C(=O)c2ccccc2C1=O.CC[O-].CC[O-].[Ti+4]"
  growth inhibition, %: 37.8
- COMPOUND: "Cc1ncc2c(n1)CCC1=C2OS(=O)(=O)CC1N(C)C (stereo not drawn)"
  growth inhibition, %: -10.1

Turning to the following compound.
Query block: Item under review: CC(=O)OC1CCC2(C)C(CCC3C2CC(OC(C)=O)C2(C)C(C(C)CCC(c4ccccc4)c4ccccc4)CCC32)C1 (stereo not drawn) . Reported growth inhibition?
Result block: 0.15

The values you see were collected from PubChem BioAssay (NCI).
